target: WEE1 (human) (UniProt P30291); test: KINOMEscan competition binding; conditions: compound 10.0 µM
Sequence (P30291 whole entry, looked up): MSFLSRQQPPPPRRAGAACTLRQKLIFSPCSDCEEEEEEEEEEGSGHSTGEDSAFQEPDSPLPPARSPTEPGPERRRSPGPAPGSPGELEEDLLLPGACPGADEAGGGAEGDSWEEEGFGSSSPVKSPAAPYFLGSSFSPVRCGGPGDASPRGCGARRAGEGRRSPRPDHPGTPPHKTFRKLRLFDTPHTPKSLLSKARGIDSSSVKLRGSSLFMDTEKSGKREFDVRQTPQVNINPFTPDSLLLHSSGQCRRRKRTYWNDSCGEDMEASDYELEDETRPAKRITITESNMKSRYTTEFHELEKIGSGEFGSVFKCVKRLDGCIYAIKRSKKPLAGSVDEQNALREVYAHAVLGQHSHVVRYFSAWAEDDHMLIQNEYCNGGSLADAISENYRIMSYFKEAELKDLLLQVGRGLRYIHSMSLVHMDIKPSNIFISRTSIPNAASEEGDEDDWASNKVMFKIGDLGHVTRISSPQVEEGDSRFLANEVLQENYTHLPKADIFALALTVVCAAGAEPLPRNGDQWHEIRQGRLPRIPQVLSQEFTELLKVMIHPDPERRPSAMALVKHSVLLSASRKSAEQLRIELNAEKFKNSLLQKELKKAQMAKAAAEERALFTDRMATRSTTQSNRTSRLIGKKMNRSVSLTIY
Consider the following compounds; for each one, report its kinase still bound, per cent of control.
# output: bare number, implied unit %

O=C1NC(=O)/C(=C/c2ccc3nccc(-c4ccncc4)c3c2)S1 has a reported kinase still bound, per cent of control of 100

COCC(=O)NC/C=C/c1ccc2ncnc(Nc3ccc(Oc4ccc(C)nc4)c(C)c3)c2c1 has a reported kinase still bound, per cent of control of 100

NC(=O)Nc1cc(-c2cccc(F)c2)sc1C(=O)N[C@@H]1CCCNC1 has a reported kinase still bound, per cent of control of 50

N#CCNC(=O)c1ccc(-c2ccnc(Nc3ccc(N4CCOCC4)cc3)n2)cc1 has a reported kinase still bound, per cent of control of 100

CCN1CCN(C(=O)Cc2ccc(Nc3ncc(F)c(Nc4ccc(C(=O)Nc5ccccc5Cl)cc4)n3)cc2)CC1 has a reported kinase still bound, per cent of control of 31

COc1ccc(N(C(=O)Oc2c(C)cccc2C)c2ccnc(Nc3ccc(N4CCN(C)CC4)cc3)n2)c(OC)c1 has a reported kinase still bound, per cent of control of 85

COc1cc(C(=O)N2CCC(N3CCN(C)CC3)CC2)ccc1Nc1ncc2c(n1)N(C)c1ccccc1C(=O)N2C has a reported kinase still bound, per cent of control of 100

CNC(=O)c1cc(Oc2ccc(NC(=O)Nc3ccc(Cl)c(C(F)(F)F)c3)cc2)ccn1 has a reported kinase still bound, per cent of control of 100

C=CC(=O)Nc1ccc(CN(C(=O)Nc2c(Cl)c(OC)cc(OC)c2Cl)c2cc(Nc3ccc(N4CCN(C)CC4)cc3)ncn2)cc1 has a reported kinase still bound, per cent of control of 100

---

target: SGK110 (human) (UniProt P0C264); experiment: KINOMEscan competition binding; conditions: compound 10.0 µM
Sequence (P0C264 whole entry, looked up): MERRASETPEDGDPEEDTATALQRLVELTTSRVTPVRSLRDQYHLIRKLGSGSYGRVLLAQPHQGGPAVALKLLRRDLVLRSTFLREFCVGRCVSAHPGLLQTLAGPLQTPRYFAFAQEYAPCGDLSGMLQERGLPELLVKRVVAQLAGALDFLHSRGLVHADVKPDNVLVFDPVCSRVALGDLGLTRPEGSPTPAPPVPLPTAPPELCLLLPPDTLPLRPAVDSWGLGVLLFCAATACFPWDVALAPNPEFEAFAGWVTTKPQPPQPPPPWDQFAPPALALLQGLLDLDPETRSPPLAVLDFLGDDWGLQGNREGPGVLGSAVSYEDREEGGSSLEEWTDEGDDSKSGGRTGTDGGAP
property label: kinase still bound, per cent of control (%)
# output: bare number, implied unit %

Sample O=C(Nc1cccc(Nc2ncc(Br)c(NCCc3cnc[nH]3)n2)c1)N1CCCC1 , system: SGK110 (human) (UniProt P0C264). Its kinase still bound, per cent of control is 0.95

Sample CS(=O)(=O)N1CCN(Cc2cc3nc(-c4cccc5[nH]ncc45)nc(N4CCOCC4)c3s2)CC1 , system: SGK110 (human) (UniProt P0C264). Its kinase still bound, per cent of control is 100

Sample Cc1n[nH]c2ccc(-c3cncc(OC[C@@H](N)Cc4c[nH]c5ccccc45)c3)cc12 , system: SGK110 (human) (UniProt P0C264). Its kinase still bound, per cent of control is 100

Sample CCN1CCN(C(=O)Cc2ccc(Nc3ncc(F)c(Nc4ccc(C(=O)Nc5ccccc5Cl)cc4)n3)cc2)CC1 , system: SGK110 (human) (UniProt P0C264). Its kinase still bound, per cent of control is 40

Sample NC(=O)Nc1cc(-c2cccc(F)c2)sc1C(=O)N[C@@H]1CCCNC1 , system: SGK110 (human) (UniProt P0C264). Its kinase still bound, per cent of control is 0

Sample COc1ccc(N(C(=O)Oc2c(C)cccc2C)c2ccnc(Nc3ccc(N4CCN(C)CC4)cc3)n2)c(OC)c1 , system: SGK110 (human) (UniProt P0C264). Its kinase still bound, per cent of control is 44

Sample O=c1cc(N2CCOCC2)oc2c(-c3cccc4c3sc3ccccc34)cccc12 , system: SGK110 (human) (UniProt P0C264). Its kinase still bound, per cent of control is 100

Sample C=CC(=O)Nc1cc(-n2c(=O)ccc3cnc4ccc(-c5cn[nH]c5)cc4c32)ccc1C , system: SGK110 (human) (UniProt P0C264). Its kinase still bound, per cent of control is 100

Sample CCN(CC)CCCCNc1ncc2c(n1)N(C)C(=O)N(c1c(Cl)c(OC)cc(OC)c1Cl)C2 , system: SGK110 (human) (UniProt P0C264). Its kinase still bound, per cent of control is 100

Sample CNC(=O)c1cc(Oc2ccc(NC(=O)Nc3ccc(Cl)c(C(F)(F)F)c3)cc2)ccn1 , system: SGK110 (human) (UniProt P0C264). Its kinase still bound, per cent of control is 94

Sample N#CCNC(=O)c1ccc(-c2ccnc(Nc3ccc(N4CCOCC4)cc3)n2)cc1 , system: SGK110 (human) (UniProt P0C264). Its kinase still bound, per cent of control is 83

Sample COCC(=O)NC/C=C/c1ccc2ncnc(Nc3ccc(Oc4ccc(C)nc4)c(C)c3)c2c1 , system: SGK110 (human) (UniProt P0C264). Its kinase still bound, per cent of control is 100

Sample COc1cc2ncn(-c3cc(OCc4ccccc4C(F)(F)F)c(C(N)=O)s3)c2cc1OC , system: SGK110 (human) (UniProt P0C264). Its kinase still bound, per cent of control is 100

Sample COc1cc2ncnc(-n3nc(-c4ccccn4)nc3N)c2cc1OC , system: SGK110 (human) (UniProt P0C264). Its kinase still bound, per cent of control is 100

Sample C=CC(=O)Nc1ccc(CN(C(=O)Nc2c(Cl)c(OC)cc(OC)c2Cl)c2cc(Nc3ccc(N4CCN(C)CC4)cc3)ncn2)cc1 , system: SGK110 (human) (UniProt P0C264). Its kinase still bound, per cent of control is 100

Sample O=C1NC(=O)/C(=C/c2ccc3nccc(-c4ccncc4)c3c2)S1 , system: SGK110 (human) (UniProt P0C264). Its kinase still bound, per cent of control is 100

Sample COc1cc(C(=O)N2CCC(N3CCN(C)CC3)CC2)ccc1Nc1ncc2c(n1)N(C)c1ccccc1C(=O)N2C , system: SGK110 (human) (UniProt P0C264). Its kinase still bound, per cent of control is 62

Sample COc1cc(N2CCN(C)CC2)ccc1Nc1ncc2c(n1)N(C)c1ccccc1C(=O)N2C , system: SGK110 (human) (UniProt P0C264). Its kinase still bound, per cent of control is 30

Sample C[C@@H](Oc1cc(-c2cnn(C3CCNCC3)c2)cnc1N)c1c(Cl)ccc(F)c1Cl , system: SGK110 (human) (UniProt P0C264). Its kinase still bound, per cent of control is 3.4

Sample CNC(=O)c1ccc(Nc2cc(Nc3ccccc3S(=O)(=O)C(C)C)c3cc[nH]c3n2)nc1 , system: SGK110 (human) (UniProt P0C264). Its kinase still bound, per cent of control is 7.4

Sample CN(C)C/C=C/C(=O)Nc1ccc(C(=O)Nc2cccc(Nc3nccc(-c4cccnc4)n3)c2)cc1 , system: SGK110 (human) (UniProt P0C264). Its kinase still bound, per cent of control is 100

---

target: ULK1 (human) (UniProt O75385); experiment: KINOMEscan competition binding; conditions: compound 10.0 µM
Sequence (O75385 whole entry, looked up): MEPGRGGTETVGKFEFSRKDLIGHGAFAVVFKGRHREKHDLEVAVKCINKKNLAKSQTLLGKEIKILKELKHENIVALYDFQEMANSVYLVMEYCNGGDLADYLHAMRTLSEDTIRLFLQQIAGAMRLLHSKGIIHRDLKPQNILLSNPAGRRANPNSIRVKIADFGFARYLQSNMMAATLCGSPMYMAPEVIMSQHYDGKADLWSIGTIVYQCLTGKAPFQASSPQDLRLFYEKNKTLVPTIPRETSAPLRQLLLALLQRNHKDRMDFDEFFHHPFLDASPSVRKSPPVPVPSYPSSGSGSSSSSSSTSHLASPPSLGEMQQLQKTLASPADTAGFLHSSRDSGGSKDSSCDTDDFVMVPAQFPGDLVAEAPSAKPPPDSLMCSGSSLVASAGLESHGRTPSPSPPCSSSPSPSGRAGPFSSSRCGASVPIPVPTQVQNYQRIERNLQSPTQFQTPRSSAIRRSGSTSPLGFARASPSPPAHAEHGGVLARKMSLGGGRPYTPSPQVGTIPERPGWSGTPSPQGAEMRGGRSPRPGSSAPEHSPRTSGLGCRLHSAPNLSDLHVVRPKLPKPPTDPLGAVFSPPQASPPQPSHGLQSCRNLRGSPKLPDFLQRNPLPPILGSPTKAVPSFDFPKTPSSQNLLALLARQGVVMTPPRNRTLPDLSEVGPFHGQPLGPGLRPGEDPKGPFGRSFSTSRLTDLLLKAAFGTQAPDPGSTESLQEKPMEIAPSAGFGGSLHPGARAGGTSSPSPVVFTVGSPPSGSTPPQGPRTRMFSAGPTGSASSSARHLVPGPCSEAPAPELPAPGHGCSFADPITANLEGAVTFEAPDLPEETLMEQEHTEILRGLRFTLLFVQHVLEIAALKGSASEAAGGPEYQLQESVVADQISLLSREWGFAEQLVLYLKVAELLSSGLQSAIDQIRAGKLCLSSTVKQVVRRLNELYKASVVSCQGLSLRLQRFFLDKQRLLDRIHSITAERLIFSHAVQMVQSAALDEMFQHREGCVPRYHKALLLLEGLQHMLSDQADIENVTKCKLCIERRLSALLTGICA
property label: kinase still bound, per cent of control
Report field: quantity (unit follows the number).

CN(C)C/C=C/C(=O)Nc1ccc(C(=O)Nc2cccc(Nc3nccc(-c4cccnc4)n3)c2)cc1 has a reported kinase still bound, per cent of control of 97%

O=c1cc(N2CCOCC2)oc2c(-c3cccc4c3sc3ccccc34)cccc12 has a reported kinase still bound, per cent of control of 41%

COc1cc(N2CCN(C)CC2)ccc1Nc1ncc2c(n1)N(C)c1ccccc1C(=O)N2C has a reported kinase still bound, per cent of control of 2.9%

C=CC(=O)Nc1cc(-n2c(=O)ccc3cnc4ccc(-c5cn[nH]c5)cc4c32)ccc1C has a reported kinase still bound, per cent of control of 87%

CNC(=O)c1cc(Oc2ccc(NC(=O)Nc3ccc(Cl)c(C(F)(F)F)c3)cc2)ccn1 has a reported kinase still bound, per cent of control of 100%

N#CCNC(=O)c1ccc(-c2ccnc(Nc3ccc(N4CCOCC4)cc3)n2)cc1 has a reported kinase still bound, per cent of control of 40%

CCN(CC)CCCCNc1ncc2c(n1)N(C)C(=O)N(c1c(Cl)c(OC)cc(OC)c1Cl)C2 has a reported kinase still bound, per cent of control of 100%

---

Consider the following compounds; for each one, report its kinase still bound, per cent of control.
target: UniProt P41240; test: KINOMEscan competition binding; details: compound 10.0 µM
Sequence (P41240 whole entry, looked up): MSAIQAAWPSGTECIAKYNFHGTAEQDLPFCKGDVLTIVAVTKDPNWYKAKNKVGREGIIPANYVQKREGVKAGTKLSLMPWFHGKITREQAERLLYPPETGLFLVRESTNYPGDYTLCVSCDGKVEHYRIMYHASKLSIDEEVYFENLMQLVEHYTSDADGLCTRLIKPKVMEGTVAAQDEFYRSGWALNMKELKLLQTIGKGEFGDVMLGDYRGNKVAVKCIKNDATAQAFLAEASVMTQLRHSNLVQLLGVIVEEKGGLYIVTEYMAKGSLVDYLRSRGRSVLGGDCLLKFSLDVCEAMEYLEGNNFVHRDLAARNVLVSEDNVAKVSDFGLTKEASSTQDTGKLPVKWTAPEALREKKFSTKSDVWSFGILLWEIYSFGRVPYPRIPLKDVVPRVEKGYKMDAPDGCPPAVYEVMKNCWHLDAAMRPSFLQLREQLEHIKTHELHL
# output: bare number, implied unit %

CCN1CCN(C(=O)Cc2ccc(Nc3ncc(F)c(Nc4ccc(C(=O)Nc5ccccc5Cl)cc4)n3)cc2)CC1 has a reported kinase still bound, per cent of control of 73

C=CC(=O)Nc1ccc(CN(C(=O)Nc2c(Cl)c(OC)cc(OC)c2Cl)c2cc(Nc3ccc(N4CCN(C)CC4)cc3)ncn2)cc1 has a reported kinase still bound, per cent of control of 100

CNC(=O)c1cc(Oc2ccc(NC(=O)Nc3ccc(Cl)c(C(F)(F)F)c3)cc2)ccn1 has a reported kinase still bound, per cent of control of 70

COc1cc(N2CCN(C)CC2)ccc1Nc1ncc2c(n1)N(C)c1ccccc1C(=O)N2C has a reported kinase still bound, per cent of control of 100

COc1ccc(N(C(=O)Oc2c(C)cccc2C)c2ccnc(Nc3ccc(N4CCN(C)CC4)cc3)n2)c(OC)c1 has a reported kinase still bound, per cent of control of 2.5

CNC(=O)c1ccc(Nc2cc(Nc3ccccc3S(=O)(=O)C(C)C)c3cc[nH]c3n2)nc1 has a reported kinase still bound, per cent of control of 100

CS(=O)(=O)N1CCN(Cc2cc3nc(-c4cccc5[nH]ncc45)nc(N4CCOCC4)c3s2)CC1 has a reported kinase still bound, per cent of control of 100

COc1cc(C(=O)N2CCC(N3CCN(C)CC3)CC2)ccc1Nc1ncc2c(n1)N(C)c1ccccc1C(=O)N2C has a reported kinase still bound, per cent of control of 90

C=CC(=O)Nc1cc(-n2c(=O)ccc3cnc4ccc(-c5cn[nH]c5)cc4c32)ccc1C has a reported kinase still bound, per cent of control of 100

O=C1NC(=O)/C(=C/c2ccc3nccc(-c4ccncc4)c3c2)S1 has a reported kinase still bound, per cent of control of 80

O=c1cc(N2CCOCC2)oc2c(-c3cccc4c3sc3ccccc34)cccc12 has a reported kinase still bound, per cent of control of 100

Cc1n[nH]c2ccc(-c3cncc(OC[C@@H](N)Cc4c[nH]c5ccccc45)c3)cc12 has a reported kinase still bound, per cent of control of 100

COCC(=O)NC/C=C/c1ccc2ncnc(Nc3ccc(Oc4ccc(C)nc4)c(C)c3)c2c1 has a reported kinase still bound, per cent of control of 59

COc1cc2ncnc(-n3nc(-c4ccccn4)nc3N)c2cc1OC has a reported kinase still bound, per cent of control of 43

NC(=O)Nc1cc(-c2cccc(F)c2)sc1C(=O)N[C@@H]1CCCNC1 has a reported kinase still bound, per cent of control of 0.05

CCN(CC)CCCCNc1ncc2cc(-c3cc(OC)cc(OC)c3)c(NC(=O)NC(C)(C)C)nc2n1 has a reported kinase still bound, per cent of control of 100

COc1cc2ncn(-c3cc(OCc4ccccc4C(F)(F)F)c(C(N)=O)s3)c2cc1OC has a reported kinase still bound, per cent of control of 97

CN(C)C/C=C/C(=O)Nc1ccc(C(=O)Nc2cccc(Nc3nccc(-c4cccnc4)n3)c2)cc1 has a reported kinase still bound, per cent of control of 97

O=C(Nc1cccc(Nc2ncc(Br)c(NCCc3cnc[nH]3)n2)c1)N1CCCC1 has a reported kinase still bound, per cent of control of 24

N#CCNC(=O)c1ccc(-c2ccnc(Nc3ccc(N4CCOCC4)cc3)n2)cc1 has a reported kinase still bound, per cent of control of 100

CCN(CC)CCCCNc1ncc2c(n1)N(C)C(=O)N(c1c(Cl)c(OC)cc(OC)c1Cl)C2 has a reported kinase still bound, per cent of control of 100

Values were extracted from the kinase profiling compilation of Christmann-Franck et al. (2016).
